Data provenance is ChEMBL document CHEMBL5214972.

Measured Target: Glutathione hydrolase 1 proenzyme (Homo sapiens)
Sequence (P19440 1-380 limits assumed): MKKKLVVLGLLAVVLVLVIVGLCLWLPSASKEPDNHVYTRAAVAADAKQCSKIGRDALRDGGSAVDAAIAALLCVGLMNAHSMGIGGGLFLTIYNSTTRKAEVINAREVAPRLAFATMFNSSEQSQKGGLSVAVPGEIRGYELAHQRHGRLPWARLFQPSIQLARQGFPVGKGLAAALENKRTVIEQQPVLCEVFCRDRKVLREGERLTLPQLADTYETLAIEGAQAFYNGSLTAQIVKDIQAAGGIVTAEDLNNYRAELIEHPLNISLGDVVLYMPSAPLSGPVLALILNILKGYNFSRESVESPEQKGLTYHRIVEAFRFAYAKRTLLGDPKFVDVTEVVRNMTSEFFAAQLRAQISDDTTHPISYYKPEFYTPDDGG
Sequence (P19440 381-569 limits assumed): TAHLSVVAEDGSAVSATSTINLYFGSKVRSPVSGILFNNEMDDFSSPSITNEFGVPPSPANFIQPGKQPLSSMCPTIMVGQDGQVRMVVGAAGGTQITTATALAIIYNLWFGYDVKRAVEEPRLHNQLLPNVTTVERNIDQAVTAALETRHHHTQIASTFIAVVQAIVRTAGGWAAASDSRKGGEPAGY
Procedure Summary: Inhibition of human GGT1 transpeptidation in Pichia pastoris using L-GpNA as substrate in presence of Gly-Gly
Mark MET only for Ki values smaller than 200 µM; exact matches and larger values are NOT MET.

>>> df
                               record_smiles  class_name
 0                    N[C@@H](CCB(O)O)C(=O)O         MET
 1                  NCCN[C@H](CCB(O)O)C(=O)O         MET
 2         O=C(O)[C@@H](CCB(O)O)NCc1c[nH]cn1         MET
 3         O=C(O)[C@@H](CCB(O)O)NCCCc1ccccc1         MET
 4          C[C@@H](N)CN[C@H](CCB(O)O)C(=O)O     NOT MET
 5    O=C(O)c1cccc(CN[C@H](CCB(O)O)C(=O)O)c1     NOT MET
 6  O=C(O)[C@@H](CCB(O)O)NCc1ccc(S(=O)(=O)Nc2ccccc2)cc1         MET
 7                     N[C@H](CCB(O)O)C(=O)O         MET
 8          O=C(O)[C@@H](CCB(O)O)NCCc1ccccc1     NOT MET
 9   N[C@H](CN[C@H](CCB(O)O)C(=O)O)Cc1ccccc1         MET
10        COc1ccc(CN[C@H](CCB(O)O)C(=O)O)cc1     NOT MET
11  N[C@@H](CN[C@H](CCB(O)O)C(=O)O)Cc1ccccc1         MET

* * *

Procedure Summary: Inhibition of bovine GGT1 transpeptidation using gamma-glutamyl-p-nitroanilide in presence of Gly-Gly
Design: species or system Bos taurus
Endpoint Label: Ki (nM)

In [3]: df
Out[3]:
            record_smiles  unit_info  reported_measurement
0  N[C@@H](CCB(O)O)C(=O)O         nM                    17

* * *

Measured Target: Glutathione hydrolase 1 proenzyme (Homo sapiens)
Procedure Summary: Inhibition of human GGT1 expressed in Pichia pastoris assessed as inhibition of GSH hydrolysis measured by L-glutamate release assay
pKi: −log10 of the molar value.
Quick reference for pKi among some compounds
Endpoint Label: pKi

>>> print(df.to_string())
                              record_smiles  result_operator  reported_measurement
0         O=C(O)[C@@H](CCB(O)O)NCCCc1ccccc1                =                  3.97
1                     N[C@H](CCB(O)O)C(=O)O                =                  7.11
2          C[C@@H](N)CN[C@H](CCB(O)O)C(=O)O                <                  3.00
3  N[C@@H](CN[C@H](CCB(O)O)C(=O)O)Cc1ccccc1                =                  3.29
4         O=C(O)[C@@H](CCB(O)O)NCc1c[nH]cn1                =                  4.06
5                    N[C@@H](CCB(O)O)C(=O)O                =                  7.60
6          O=C(O)[C@@H](CCB(O)O)NCCc1ccccc1                =                  3.45
7                  NCCN[C@H](CCB(O)O)C(=O)O                =                  3.59
8           O=C(O)[C@@H](CCB(O)O)NCc1ccccc1                =                  2.67
